studySystem: T1, GST-AF6 PDZ domain fusion protein (Homo sapiens (Human), UniProt P55196 1001-1093)
T1 construct: also called af-6 protein; not shown: glutathione S-transferase encoded by vector pGEX-3X (Pharmacia)
T1 sequence: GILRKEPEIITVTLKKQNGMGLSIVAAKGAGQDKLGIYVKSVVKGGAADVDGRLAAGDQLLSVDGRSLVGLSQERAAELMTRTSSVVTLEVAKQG
measurementNotes: A/G assays
Ends that are not written are not given here. * marks the point of attachment. Biotin = O=C1N[C@H]2[C@H](CS[C@H]2CCCCC(=O)*)N1
observationType: binding result

Which binding result is listed for Biotin-LERVSSTSPSTGEHELSAGF (Only the last four residues are seen in the excerpts) [CC CKR-1R C-terminal peptide AA41L] ? no binding

Which binding result is listed for Biotin-EVICYIEKPGVETLEDSVF [CDW125 (IL5R) C-terminal peptide AA28L, biotinylated] ? no binding

Which binding result is listed for Biotin-YSATYSELEDPGEMSPPIDL (also called FceRlb; FcεRβI) [FceRIb C-terminal peptide AA25L, biotinylated] ? no binding

Which binding result is listed for Biotin-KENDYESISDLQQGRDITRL (also called Phosphoprotein Associated with GEMs) [PAG C-terminal peptide AA58L, biotinylated] ? no binding
